List of abundance fitness values.
B1: Cytoplasmic polyadenylation element-binding protein 2, residues 513 to 575; numbered along this chain, Q7Z5Q1 (parent)
chain: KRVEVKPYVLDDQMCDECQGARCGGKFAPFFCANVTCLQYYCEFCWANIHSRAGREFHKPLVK

# Variants of: B1
# protocol_notes: abundance fitness (aPCA) (normalised: wild type 0, dead -1); higher = more abundant; growth selection in yeast, the domain comes from the species named
# run_conditions: Homo sapiens
Enter the number alone.

>  <sequence_data>
KRVEVKPYVLDDQMCDECQGARCGGKFAPFFCANVTCLQYYCEFCWANIHSCAGREFHKPLVK [R52C]

>  <abundance fitness>
-0.077

$$$$
>  <sequence_data>
KRVEVKPYVLDDQMCDECQGARCGGKFAPFFCANVTCLQYYCEFCWANIHSRVGREFHKPLVK [A53V]

>  <abundance fitness>
-0.006

$$$$
>  <sequence_data>
KRVEVKPYVLDDQMIDECQGARCGGKFAPFFCANVTCLQYYCEFCWANIHSRAGREFHKPLVK [C15I]

>  <abundance fitness>
-0.626

$$$$

# evaluate next
(Q) Please report the recorded abundance fitness for KRVFVKPYVLDDQMCDECQGARCGGKFAPFFCANVTCLQYYCEFCWANIHSRAGREFHKPLVK [E4F] .
(A) -0.208
